B1: SPATS1 (parent)
chain: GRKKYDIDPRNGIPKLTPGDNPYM

# Variants of: B1
# EXPERIMENT_NOTES: protein stability index of a GFP-peptide fusion (GPS, HEK-293T) (PSI 1-6); higher = more stable;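 note: lentivirally expressed fusions sorted by FACS into six bins by GFP to DsRed ratio, PSI derived from sequencing read proportions per bin multiplied by bin number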
# EXPERIMENTAL_SETUP: c terminus: a fixed tail appended
REPORTED_METRIC: protein stability index

// below: answered variants
{"VARIANT_DESIGNATION": "D8M", "REPORTED_METRIC": "protein stability index", "VAL": 3.18}
{"VARIANT_DESIGNATION": "Y23C", "REPORTED_METRIC": "protein stability index", "VAL": 3.26}
{"VARIANT_DESIGNATION": "G12Q", "REPORTED_METRIC": "protein stability index", "VAL": 3.72}
{"VARIANT_DESIGNATION": "K4N", "REPORTED_METRIC": "protein stability index", "VAL": 3.88}
{"VARIANT_DESIGNATION": "D20P", "REPORTED_METRIC": "protein stability index", "VAL": 3.2}

[in] Note down protein stability index recorded for R2T
[out] 3.15

[in] Note down protein stability index recorded for P9W
[out] 2.52

[in] Note down protein stability index recorded for G12I
[out] 2.77

[in] Note down protein stability index recorded for P9D
[out] 3.99

[in] Note down protein stability index recorded for L16I
[out] 3.47

[in] Note down protein stability index recorded for G1S
[out] 3.65

[in] Note down protein stability index recorded for G1V
[out] 3.68

[in] Note down protein stability index recorded for D6Q
[out] 2.94

[in] Note down protein stability index recorded for P9Q
[out] 3.67

[in] Note down protein stability index recorded for N11H
[out] 3.54

[in] Note down protein stability index recorded for P22N
[out] 3.64

[in] Note down protein stability index recorded for M24V
[out] 4.22

[in] Note down protein stability index recorded for I7W
[out] 2.91

[in] Note down protein stability index recorded for P18C
[out] 3.38

[in] Note down protein stability index recorded for P14W
[out] 2.9

[in] Note down protein stability index recorded for Y5A
[out] 4.14

[in] Note down protein stability index recorded for Y5V
[out] 4.04

Reference for the values: the supplement of paper PMC10567573
